All values here come from the Human Domainome abundance scans (Beltran et al. 2025).

B1: Glucocorticoid receptor, residues 419 to 494; numbered along this chain, P04150 (parent)
chain: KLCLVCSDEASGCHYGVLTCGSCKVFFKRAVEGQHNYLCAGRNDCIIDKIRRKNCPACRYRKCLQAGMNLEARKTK

Variants of: B1
Assay: abundance fitness (aPCA) (normalised: wild type 0, dead -1); higher = more abundant; growth selection in yeast, the domain comes from the species named
Settings: Homo sapiens
Entry flag: true if abundance fitness reaches -0.07; false if it does not.

Example entries begin here.
CHANGES: K28I
CLASS_NAME: true
--
CHANGES: C58Y
CLASS_NAME: false
--
CHANGES: R59D
CLASS_NAME: false
--
CHANGES: L64A
CLASS_NAME: false
--
CHANGES: I46Y
CLASS_NAME: true
--
CHANGES: A66H
CLASS_NAME: true
--
CHANGES: G21S
CLASS_NAME: true
--
CHANGES: C3E
CLASS_NAME: false

Please check the record `G33Q` and state if its abundance fitness is at or above -0.07.
true

// inclusive: abundance fitness at least -0.07? input: `A10Q`
false

Determine whether this variant has abundance fitness no lower than -0.07: `V5H`
false

Threshold query (abundance fitness >= -0.07) on `T19S`
true

Kindly determine if abundance fitness recorded for `C20A` is above or exactly -0.07.
false

Confirm if abundance fitness reported for the variant `N69Y` is -0.07 or above.
false

Form field: abundance fitness at least -0.07? Entry: `A66K`
true

Hi team, for `C45P` , is the recorded abundance fitness at or above -0.07?
false

Hi, just wondering whether `I50Q` shows abundance fitness of -0.07 or higher.
true

Does the variant `N43I` have recorded abundance fitness that is -0.07 or more?
false
